Biological target: CYP2C19 (Homo sapiens)
Construct: from tissue; host or cells: human liver microsomes (pooled in the time-dependent assay)
Sequence (P33261 whole entry): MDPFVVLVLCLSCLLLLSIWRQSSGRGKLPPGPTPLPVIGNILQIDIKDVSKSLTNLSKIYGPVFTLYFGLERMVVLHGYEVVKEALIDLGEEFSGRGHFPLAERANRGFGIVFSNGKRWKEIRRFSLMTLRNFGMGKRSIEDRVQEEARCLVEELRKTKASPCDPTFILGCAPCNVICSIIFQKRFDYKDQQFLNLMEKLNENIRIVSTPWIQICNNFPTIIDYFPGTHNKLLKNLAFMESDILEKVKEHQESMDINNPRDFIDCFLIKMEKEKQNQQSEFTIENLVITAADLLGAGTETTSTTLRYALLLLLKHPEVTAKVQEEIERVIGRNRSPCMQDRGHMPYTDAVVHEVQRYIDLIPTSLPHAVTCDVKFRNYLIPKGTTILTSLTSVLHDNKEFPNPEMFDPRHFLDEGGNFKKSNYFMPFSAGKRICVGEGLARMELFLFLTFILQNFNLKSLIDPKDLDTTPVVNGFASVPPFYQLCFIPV
Test: direct inhibition of CYP450 in human liver microsomes
Format: in vitro ADME
Settings: 3 uM, % of non-inhibited control, read-out: CYP2C19 T0 % activity
Each entry below carries its reported activity at 3 µM.
A number alone suffices; assume %.

Sample records with activity at 3 µM:
The observed activity at 3 µM for CO[C@H]1CC[C@H](NC(=O)c2nccc(-n3ccnc3)n2)CC1 when tested with CYP2C19 (Homo sapiens) stands at 92

The observed activity at 3 µM for CO[C@H]1CC[C@H](NC(=O)c2cc(C3CCOCC3)nc(-c3cncn3C)n2)CC1 when tested with CYP2C19 (Homo sapiens) stands at 92

Below: the item to evaluate.
The observed activity at 3 µM for Cn1cncc1-c1ccnc(C(=O)Nc2ccc(C(C)(C)O)nc2)n1 when tested with CYP2C19 (Homo sapiens) stands at 88
